tested on: lysozyme; experiment: ESI-MS of lysozyme glycoforms after incubation with D-ribose; details: lysozyme + D-ribose − 2H2O (14,419 Da); 37° C., 5 days
reportedEndpoint: Peak area as % of total area of all glycoforms, 14,419 (%)

> print(dat)
                       smilestext  assaysystem  reported
1          CNCC(=O)c1ccc(O)c(O)c1     lysozyme       2.5
2               NCCc1ccc(O)c(O)c1     lysozyme       1.6
3  N[C@@H](Cc1ccc(O)c(O)c1)C(=O)O     lysozyme       2.1

----------
# maps each entry to its IC50
test system: bovine serum albumin (BSA); experiment: Maillard fluorescence-based assay of AGEs formation, IC50 determination (BSA + D-ribose); conditions: inhibition of Maillard fluorescence development; 0.075 mM BSA, 50 mM D-ribose, 37° C., 5 days
reportedEndpoint: IC50

> print(dat)
                                 smilestext  reported
1  COC1=C[C@@H]2[C@@H]3Cc4ccc(OC)c(O)c4[C@]2(CCN3C)CC1=O    > 4 mM
2                    O=[N+]([O-])c1ncc[nH]1    > 4 mM
3               O=c1c2ccccc2[se]n1-c1ccccc1    > 4 mM

----------
tested on: lysozyme; assay: ESI-MS of lysozyme glycoforms after incubation with D-ribose; settings: unmodified lysozyme (14,305 Da); 37° C., 5 days;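 also: lysozyme incubated with D-ribose, with or without anti-glycation agents, then separated by reversed-phase HPLC and analysed by electrospray mass spectrometry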
Each entry gets 0.0 if its Peak area as % of total area of all glycoforms, 14,305 stays under 70%, and 1.0 if its Peak area as % of total area of all glycoforms, 14,305 is 70% or above.

compound	assignedClass
O=C1OC(CN2CCOCC2)CN1/N=C/c1ccc([N+](=O)[O-])o1 (stereo not shown) [Furaltadone]	0.0
NCCc1ccc(O)c(O)c1 [Dopamine]	1.0
Cc1ncc([N+](=O)[O-])n1CC(O)CCl (stereo not shown) [Ornidazole]	0.0
O=Cc1ccc(O)c(O)c1 [3,4-Dihydroxybenzaldehyde]	1.0
CS(=O)(=O)Nc1ccc([N+](=O)[O-])cc1Oc1ccccc1 [Nimesulide]	0.0
O=c1c(O)c(-c2cc(O)c(O)c(O)c2)oc2cc(O)cc(O)c12 [Myricetin]	1.0
CC(C)NC[C@H](O)c1ccc(O)c(O)c1 [L-Isoproterenol]	0.0
O=[N+]([O-])c1cc([As](=O)(O)O)ccc1O [Roxarsone]	0.0
Cc1cc(-c2ccc(/N=N/c3c(S(=O)(=O)O)cc4cc(S(=O)(=O)O)cc(N)c4c3O)c(C)c2)ccc1/N=N/c1c(S(=O)(=O)O)cc2cc(S(=O)(=O)O)cc(N)c2c1O [Trypan blue]	0.0
NC[C@H](O)c1ccc(O)c(O)c1 [D-Norepinephrine]	1.0
O=c1cc(-c2ccc(O)c(O)c2)oc2c(O)c(O)ccc12 [7,8,3′,4′-Tetrahydroxyflavone]	1.0
N=C(N)NN [Aminoguanidine]	0.0
NC(=O)N/N=C/c1ccc([N+](=O)[O-])o1 [Nitrofurazone]	0.0
O=C1C=C(O)C(=O)c2ccccc21 [Lawsone]	1.0
O=C1C[C@@H](c2ccc(O)c(O)c2)Oc2cc(O)cc(O)c21 [Eriodictyol]	0.0
CCC(NC(C)C)C(O)c1ccc(O)c(O)c1 (stereo not shown) [Isoetharine]	1.0
O=c1cc(-c2ccc(O)c(O)c2)oc2cc(O)cc(O)c12 [Luteolin]	0.0
O=c1cc(-c2ccc(O)c(O)c2)oc2ccc(O)cc12 [6,3′,4′-Trihydroxyflavone]	0.0
CN1CCCN=C1/C=C/c1cccc(O)c1 [Oxantel]	0.0
NC[C@@H](O)c1ccc(O)c(O)c1 [L-Norepinephrine]	1.0
O=c1c(O)c(-c2ccccc2)oc2cc(O)cc(O)c12 [Galangin]	0.0
Cc1c(C(N)=O)cc([N+](=O)[O-])cc1[N+](=O)[O-] [Dinitolmide]	0.0
CCCOC(=O)c1cc(O)c(O)c(O)c1 [Propyl gallate]	1.0
O=C1C[C@@H](c2ccc(O)cc2)Oc2cc(O)cc(O)c21 [Naringenin]	0.0
O=c1cc(-c2ccccc2)oc2cc(O)c(O)c(O)c12 [Baicalein]	1.0
O=c1cc(-c2cc(O)c(O)c(O)c2)oc2cc(O)cc(O)c12 [5,7,3′,4′,5′-Pentahydroxyflavone]	0.0
CN(C)[C@@H]1C(O)=C(C(N)=O)C(=O)[C@@]2(O)C(O)=C3C(=O)c4c(O)ccc(Cl)c4[C@@H](O)[C@H]3C[C@@H]12 [Demeclocycline]	1.0
CC(C)NC[C@@H](O)c1ccc(O)c(O)c1 [D-Isoproterenol]	1.0

----------
tested on: bovine serum albumin (BSA)
pIC50: −log10 of the molar value.

compound	operator	pIC50
CC(C)=CCC1=C(O)C(=O)c2ccccc2C1=O [Lapachol]	=	3.49
Oc1c(Cl)cc(Cl)c2cccnc12 [Chloroxine]	=	2.85
CCS(=O)(=O)CCn1c([N+](=O)[O-])cnc1C [Tinidazole]	=	3.15
CO[C@H]1/C=C/O[C@@]2(C)Oc3c(C)c(O)c4c(O)c(c(/C=N/N5CCN(C)CC5)c(O)c4c3C2=O)NC(=O)/C(C)=C\C=C\[C@H](C)[C@H](O)[C@@H](C)[C@@H](O)[C@@H](C)[C@H](OC(C)=O)[C@@H]1C [Rifampicin]	=	3.92
O=C(Cn1ccnc1[N+](=O)[O-])NCCO [Etanidazole]	=	3.35
CN1C(C(=O)Nc2ccccn2)=C(O)c2ccccc2S1(=O)=O [Piroxicam]	=	3.14
N[C@@H](Cc1ccc(O)c(O)c1)C(=O)O [L-DOPA]	=	4.12
Oc1cccc2cccnc12 [8-Hydroxyquinoline]	=	4.02
CNC[C@H](O)c1ccc(O)c(O)c1 [L-Epinephrine]	=	4.74
CN1CCCN=C1/C=C/c1cccc(O)c1 [Oxantel]	=	3.22
CC(C)(C)NCC(O)c1cc(O)cc(O)c1 (stereo not drawn) [Terbutaline]	<	2.40
O=[N+]([O-])c1cccc(SSc2cccc([N+](=O)[O-])c2)c1 [Nitrophenide]	=	2.40
O=C1C[C@@H](c2ccc(O)cc2)Oc2cc(O)cc(O)c21 [Naringenin]	=	3.66
COC(=O)C1=C(C)NC(C)=C(C(=O)OCCN(C)Cc2ccccc2)C1c1cccc([N+](=O)[O-])c1 (stereo not drawn) [Nicardipine]	<	2.40
O=S1(=O)OC(c2ccc(O)cc2)(c2ccc(O)cc2)c2ccccc21 [Phenol red]	=	2.74
O=S(=O)(O)c1ccc(O)c2ncccc12 [8-Hydroxyquinoline-5-sulfonic acid]	=	3.25
CC(NCCc1ccc(O)cc1)C(O)c1ccc(O)cc1 (stereo not drawn) [Ritodrine]	<	2.40
Cc1ncc([N+](=O)[O-])n1CCO [Metronidazole]	=	3.18
COc1cc(/C=C/C(=O)CC(=O)/C=C/c2ccc(O)c(OC)c2)ccc1O [Curcumin]	=	2.96
C[C@@](Cc1ccc(O)c(O)c1)(NN)C(=O)O [S(−)-Carbidopa]	=	3.85
Cc1cc(O)c2c(c1)C(=O)c1cc(O)cc(O)c1C2=O [Emodin]	=	2.52
O=c1cc(-c2ccccc2)oc2cc(O)c(O)c(O)c12 [Baicalein]	=	4.31
Cc1c(C(N)=O)cc([N+](=O)[O-])cc1[N+](=O)[O-] [Dinitolmide]	=	3.47
O=c1oc2c(O)c(O)cc3c(=O)oc4c(O)c(O)cc1c4c23 [Ellagic acid]	=	4.40
COCCOC(=O)C1=C(C)NC(C)=C(C(=O)OC(C)C)C1c1cccc([N+](=O)[O-])c1 (stereo not drawn) [Nimodipine]	<	2.40
O=c1cc(-c2ccc(O)c(O)c2)oc2cccc(O)c12 [5,3′,4′-Trihydroxyflavone]	=	2.80
NCCc1ccc(O)c(O)c1 [Dopamine]	=	4.21
Cc1ncc([N+](=O)[O-])n1C [Dimetridazole]	=	3.34
COC(=O)c1ccc(O)c(N)c1 [Orthoform]	=	2.68
Cc1ncc([N+](=O)[O-])n1CC(O)CCl (stereo not drawn) [Ornidazole]	=	3.24
O=C1OC(CN2CCOCC2)CN1/N=C/c1ccc([N+](=O)[O-])o1 (stereo not drawn) [Furaltadone]	=	4.39
CC1=C(/C=C/C(C)=C/C=C/C(C)=C/C=C/C=C(C)/C=C/C=C(C)/C=C/C2=C(C)CCCC2(C)C)C(C)(C)CCC1 [beta-Carotene]	=	3.20
Oc1c(Br)cc(Br)c2cccnc12 [Broxyquinoline]	=	3.41

----------
# maps each entry to its Unreacted amino group
tested on: bovine serum albumin (BSA); test: Fluorescamine assay of free primary amino groups of BSA incubated with D-ribose; format: biochemical; details: free primary amino group on BSA after 5 days at 37° C.; agent at 16.8 times IC50; 64% without agent
reportedEndpoint: Unreacted amino group (%)

> print(dat)
                                    compound       reportedendpoint  reported
 1  CCCOC(=O)c1cc(O)c(O)c(O)c1 [Propyl gallate]  Unreacted amino group        28
 2  Oc1cc(O)c2c(c1)O[C@H](c1ccc(O)c(O)c1)[C@H](O)C2 [(−)-Epicatechin]  Unreacted amino group        57
 3  CC(C)NC[C@@H](O)c1ccc(O)c(O)c1 [D-Isoproterenol]  Unreacted amino group        68
 4       CNCC(=O)c1ccc(O)c(O)c1 [Adrenalone]  Unreacted amino group        45
 5  CCC(NC(C)C)C(O)c1ccc(O)c(O)c1 (stereo not shown) [Isoetharine]  Unreacted amino group        70
 6  O=Cc1ccc(O)c(O)c1 [3,4-Dihydroxybenzaldehyde]  Unreacted amino group        32
 7  O=c1c(O)cccc2cc(O)c(O)c(O)c12 [Purpurogallin]  Unreacted amino group        31
 8  O=C1OC(CN2CCOCC2)CN1/N=C/c1ccc([N+](=O)[O-])o1 (stereo not shown) [Furaltadone]  Unreacted amino group        60
 9  NC[C@H](O)c1ccc(O)c(O)c1 [D-Norepinephrine]  Unreacted amino group        67
10          Cc1cc(N)c2ccccc2c1O [Vitamin K5]  Unreacted amino group        51
